Field: MIC. Provide a value for each of the compounds that follow.
- System: E6SM
- protocol_notes: Tested for the antiviral activity against Vaccinia virus in human E6SM cells
- Format: functional
The response must be a number in mg/L with no trailing unit.

Prompt: State the recorded MIC for this entry: `Nc1ncnc2c1ncn2[C@@H]1O[C@H](/C=C\I)[C@@H](O)[C@H]1O`
Response: 20

Prompt: State the recorded MIC for this entry: `Nc1ncnc2c1ncn2[C@@H]1O[C@H](/C=C\Cl)[C@@H](O)[C@H]1O`
Response: 20

Prompt: State the recorded MIC for this entry: Nc1ncnc2c1ncn2C1O[C@H](/C=C/F)[C@@H](O)[C@H]1O (stereo partly drawn)
Response: 70

Prompt: State the recorded MIC for this entry: Cc1ccc(S(=O)(=O)/C=C/[C@H]2OC(n3cnc4c(N)ncnc43)[C@H](O)[C@@H]2O)cc1 (stereo partly drawn)
Response: 20

Prompt: State the recorded MIC for this entry: Nc1ncnc2c1ncn2C1O[C@H](/C=C/I)[C@@H](O)[C@H]1O (stereo partly drawn)
Response: 7

Prompt: State the recorded MIC for this entry: `Nc1ncnc2c1ncn2[C@@H]1O[C@H](/C=C/Br)[C@@H](O)[C@H]1O`
Response: 20

Prompt: State the recorded MIC for this entry: `Nc1ncnc2c1ncn2[C@@H]1O[C@H](/C=C/Cl)[C@@H](O)[C@H]1O`
Response: 70

Prompt: State the recorded MIC for this entry: `Nc1ncnc2c1ncn2[C@@H]1O[C@H](/C=C\Br)[C@@H](O)[C@H]1O`
Response: 150

* * *

- protocol_notes: Tested ratio of kinact to that of Ki
property: Ratio
// response body must contain only the number

Prompt: State the recorded Ratio for this entry: `Nc1ncnc2c1ncn2[C@@H]1O[C@H](/C=C/Br)[C@@H](O)[C@H]1O`
Response: 0.21

Prompt: State the recorded Ratio for this entry: Nc1ncnc2c1ncn2C1O[C@H](/C=C/F)[C@@H](O)[C@H]1O (some centres undefined)
Response: 0.008

Prompt: State the recorded Ratio for this entry: Nc1ncnc2c1ncn2C1O[C@H](/C=C/I)[C@@H](O)[C@H]1O (some centres undefined)
Response: 0.6

Prompt: State the recorded Ratio for this entry: `Nc1ncnc2c1ncn2[C@@H]1O[C@H](/C=C/Cl)[C@@H](O)[C@H]1O`
Response: 0.13

* * *

- tested_target: Adenosylhomocysteinase (Homo sapiens, UniProt P23526)
- Sequence (P23526 whole entry): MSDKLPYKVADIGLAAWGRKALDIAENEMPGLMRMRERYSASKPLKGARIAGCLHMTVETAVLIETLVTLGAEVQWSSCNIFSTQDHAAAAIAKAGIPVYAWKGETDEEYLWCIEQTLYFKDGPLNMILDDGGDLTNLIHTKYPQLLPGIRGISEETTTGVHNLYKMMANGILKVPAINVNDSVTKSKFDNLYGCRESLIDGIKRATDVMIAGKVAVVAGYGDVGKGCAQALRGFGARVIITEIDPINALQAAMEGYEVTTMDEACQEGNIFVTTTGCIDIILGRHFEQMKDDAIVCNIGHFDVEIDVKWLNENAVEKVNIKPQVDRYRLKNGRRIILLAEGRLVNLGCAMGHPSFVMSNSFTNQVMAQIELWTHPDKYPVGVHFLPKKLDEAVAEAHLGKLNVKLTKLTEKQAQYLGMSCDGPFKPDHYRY
- protocol_notes: Tested for kinetic constant for the inhibition of recombinant human placental S-Adenosyl-L-homocysteine Hydrolase
Field: Ki. Provide a value for each of the compounds that follow.

Prompt: State the recorded Ki for this entry: `Nc1ncnc2c1ncn2[C@@H]1O[C@H](/C=C/Cl)[C@@H](O)[C@H]1O`
Response: 110 nM

Prompt: State the recorded Ki for this entry: `Nc1ncnc2c1ncn2[C@@H]1O[C@H](/C=C/Br)[C@@H](O)[C@H]1O`
Response: 134 nM

Prompt: State the recorded Ki for this entry: Nc1ncnc2c1ncn2C1O[C@H](/C=C/I)[C@@H](O)[C@H]1O (some centres undefined)
Response: 96 nM

Prompt: State the recorded Ki for this entry: Nc1ncnc2c1ncn2C1O[C@H](/C=C/F)[C@@H](O)[C@H]1O (some centres undefined)
Response: 1300 nM

* * *

Field: IC50. Provide a value for each of the compounds that follow.
- System: MOLT-4
- protocol_notes: Tested for in vitro cytostatic activity against human lymphoblast Molt-4 (Clone8)
- Format: functional, cell-based
The response must be a number in µM with no trailing unit.

Prompt: What reported IC50 corresponds to `Nc1ncnc2c1ncn2[C@@H]1O[C@H](/C=C\I)[C@@H](O)[C@H]1O` on MOLT-4?
Response: 21

Prompt: What reported IC50 corresponds to `Nc1ncnc2c1ncn2[C@@H]1O[C@H](/C=C/Cl)[C@@H](O)[C@H]1O` on MOLT-4?
Response: 80

Prompt: What reported IC50 corresponds to Nc1ncnc2c1ncn2C1O[C@H](/C=C/I)[C@@H](O)[C@H]1O (some centres not stated) on MOLT-4?
Response: 18

Prompt: What reported IC50 corresponds to `Nc1ncnc2c1ncn2[C@@H]1O[C@H](/C=C\Br)[C@@H](O)[C@H]1O` on MOLT-4?
Response: 93

Prompt: What reported IC50 corresponds to Cc1ccc(S(=O)(=O)/C=C/[C@H]2OC(n3cnc4c(N)ncnc43)[C@H](O)[C@@H]2O)cc1 (some centres not stated) on MOLT-4?
Response: 32

Prompt: What reported IC50 corresponds to `Nc1ncnc2c1ncn2[C@@H]1O[C@H](/C=C\Cl)[C@@H](O)[C@H]1O` on MOLT-4?
Response: 117

Prompt: What reported IC50 corresponds to Nc1ncnc2c1ncn2C1O[C@H](/C=C/F)[C@@H](O)[C@H]1O (some centres not stated) on MOLT-4?
Response: 266

* * *

- Tested on: L1210
- protocol_notes: Tested for in vitro cytostatic activity against murine leukemia L1210
- Format: functional, cell-based
- condition_label: Mus musculus
Mark Fulfilled for IC50 under 20 µM, Not fulfilled if at or over.

Prompt: Does `Nc1ncnc2c1ncn2[C@@H]1O[C@H](/C=C\I)[C@@H](O)[C@H]1O` have IC50 strictly under 20 µM?
Response: Not fulfilled

Prompt: Does C=C(Br)[C@H]1OC(n2cnc3c(N)ncnc32)[C@H](O)[C@@H]1O (stereo not given in full) have IC50 strictly under 20 µM?
Response: Not fulfilled

Prompt: Does Cc1ccc(S(=O)(=O)/C=C/[C@H]2OC(n3cnc4c(N)ncnc43)[C@H](O)[C@@H]2O)cc1 (stereo not given in full) have IC50 strictly under 20 µM?
Response: Not fulfilled

Prompt: Does Nc1ncnc2c1ncn2C1O[C@H](/C=C/F)[C@@H](O)[C@H]1O (stereo not given in full) have IC50 strictly under 20 µM?
Response: Not fulfilled

Prompt: Does Nc1ncnc2c1ncn2C1O[C@H](/C=C/I)[C@@H](O)[C@H]1O (stereo not given in full) have IC50 strictly under 20 µM?
Response: Fulfilled

* * *

- Test system: FM3A
- protocol_notes: Tested for in vitro cytostatic activity against murine mammary carcinoma (FM3A)
- Assay type: functional, cell-based
- condition_label: Mus musculus
property: IC50 (µM)
The response must be a number in µM with no trailing unit.

Prompt: State the recorded IC50 for this entry: `Nc1ncnc2c1ncn2[C@@H]1O[C@H](/C=C\Br)[C@@H](O)[C@H]1O`
Response: 134

Prompt: State the recorded IC50 for this entry: Nc1ncnc2c1ncn2C1O[C@H](/C=C/F)[C@@H](O)[C@H]1O (some centres undefined)
Response: 287

Prompt: State the recorded IC50 for this entry: `Nc1ncnc2c1ncn2[C@@H]1O[C@H](/C=C\I)[C@@H](O)[C@H]1O`
Response: 43

Prompt: State the recorded IC50 for this entry: `Nc1ncnc2c1ncn2[C@@H]1O[C@H](/C=C/Cl)[C@@H](O)[C@H]1O`
Response: 160

Prompt: State the recorded IC50 for this entry: Nc1ncnc2c1ncn2C1O[C@H](/C=C/I)[C@@H](O)[C@H]1O (some centres undefined)
Response: 15

Prompt: State the recorded IC50 for this entry: `Nc1ncnc2c1ncn2[C@@H]1O[C@H](/C=C/Br)[C@@H](O)[C@H]1O`
Response: 60

Prompt: State the recorded IC50 for this entry: C=C(Br)[C@H]1OC(n2cnc3c(N)ncnc32)[C@H](O)[C@@H]1O (some centres undefined)
Response: 47

Prompt: State the recorded IC50 for this entry: Cc1ccc(S(=O)(=O)/C=C/[C@H]2OC(n3cnc4c(N)ncnc43)[C@H](O)[C@@H]2O)cc1 (some centres undefined)
Response: 208

Prompt: State the recorded IC50 for this entry: `Nc1ncnc2c1ncn2[C@@H]1O[C@H](/C=C\Cl)[C@@H](O)[C@H]1O`
Response: 164

* * *

- Test system: L1210
- protocol_notes: Tested for in vitro cytostatic activity against murine leukemia L1210
- Assay type: functional, cell-based
- condition_label: Mus musculus
property: IC50 (µM)
The response must be a number in µM with no trailing unit.

Prompt: What reported IC50 corresponds to `Nc1ncnc2c1ncn2[C@@H]1O[C@H](/C=C/Br)[C@@H](O)[C@H]1O` on L1210?
Response: 42

Prompt: What reported IC50 corresponds to `Nc1ncnc2c1ncn2[C@@H]1O[C@H](/C=C/Cl)[C@@H](O)[C@H]1O` on L1210?
Response: 139

Prompt: What reported IC50 corresponds to `Nc1ncnc2c1ncn2[C@@H]1O[C@H](/C=C\Cl)[C@@H](O)[C@H]1O` on L1210?
Response: 143

Prompt: What reported IC50 corresponds to `Nc1ncnc2c1ncn2[C@@H]1O[C@H](/C=C\Br)[C@@H](O)[C@H]1O` on L1210?
Response: 104

* * *

- Test system: HeLa
- protocol_notes: Tested for the minimum cytotoxic concentration against HeLa cells
- Assay type: functional
- condition_label: Homo sapiens
property: MCC

Prompt: State the recorded MCC for this entry: Nc1ncnc2c1ncn2C1O[C@H](/C=C/F)[C@@H](O)[C@H]1O (some centres not stated)
Response: > 200 µg/mL

Prompt: State the recorded MCC for this entry: `Nc1ncnc2c1ncn2[C@@H]1O[C@H](/C=C/Br)[C@@H](O)[C@H]1O`
Response: ≥ 200 µg/mL

Prompt: State the recorded MCC for this entry: `Nc1ncnc2c1ncn2[C@@H]1O[C@H](/C=C/Cl)[C@@H](O)[C@H]1O`
Response: ≥ 200 µg/mL

Prompt: State the recorded MCC for this entry: `Nc1ncnc2c1ncn2[C@@H]1O[C@H](/C=C\I)[C@@H](O)[C@H]1O`
Response: > 200 µg/mL

Prompt: State the recorded MCC for this entry: `Nc1ncnc2c1ncn2[C@@H]1O[C@H](/C=C\Cl)[C@@H](O)[C@H]1O`
Response: ≥ 200 µg/mL

Prompt: State the recorded MCC for this entry: `Nc1ncnc2c1ncn2[C@@H]1O[C@H](/C=C\Br)[C@@H](O)[C@H]1O`
Response: > 200 µg/mL

Prompt: State the recorded MCC for this entry: Nc1ncnc2c1ncn2C1O[C@H](/C=C/I)[C@@H](O)[C@H]1O (some centres not stated)
Response: 200 µg/mL
